Attribution: patent US20180086841A1

Target: T1, human CD27 (human, UniProt P26842 21-260)
T1 construct: also called hCD27; HsCD27
Assay: flow cytometry MFI, CD8+ T cells of human PBMC, N=2 donors
List of EC50 values.

>  <binder>
hCD27.131A VH9VL9 huIgG1 (antibody, V domains shown) VH: EIQLVQSGAEVKKPGASVKVSCKASGYTFTNYGMNWVRQAPGQGLKWMGWINTNTGEPTYAEEFKGRFTFTLDTSASTAYMELSSLRSEDTAVYYCAREGDAMDYWGQGTTVTVSS VL: DIQLTQSPSTLSASVGDRVTITCSASSSVSYMHWYQQKPGKAPKRWIYDTSKLASGVPARFSGSGSGTDYTLTISSLQPEDFATYYCQQWNSYPFTFGQGTKLEIK

>  <result>
0.0721 nM

$$$$

Could you now consider this next binder?
Q) // lookup EC50 for hCD27.131A VH7VL8 huIgG1 (antibody, V domains shown) VH: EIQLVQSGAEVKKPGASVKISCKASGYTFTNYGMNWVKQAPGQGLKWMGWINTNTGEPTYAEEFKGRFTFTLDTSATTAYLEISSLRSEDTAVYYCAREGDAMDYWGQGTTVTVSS VL: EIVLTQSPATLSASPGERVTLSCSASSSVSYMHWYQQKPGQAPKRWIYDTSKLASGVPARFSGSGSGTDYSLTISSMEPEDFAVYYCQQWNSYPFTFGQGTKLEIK
A) 0.118 nM
